# experimental_target: Jack bean urease enzyme (Canavalia ensiformis, UniProt P07374)
# Sequence (P07374 whole entry, looked up): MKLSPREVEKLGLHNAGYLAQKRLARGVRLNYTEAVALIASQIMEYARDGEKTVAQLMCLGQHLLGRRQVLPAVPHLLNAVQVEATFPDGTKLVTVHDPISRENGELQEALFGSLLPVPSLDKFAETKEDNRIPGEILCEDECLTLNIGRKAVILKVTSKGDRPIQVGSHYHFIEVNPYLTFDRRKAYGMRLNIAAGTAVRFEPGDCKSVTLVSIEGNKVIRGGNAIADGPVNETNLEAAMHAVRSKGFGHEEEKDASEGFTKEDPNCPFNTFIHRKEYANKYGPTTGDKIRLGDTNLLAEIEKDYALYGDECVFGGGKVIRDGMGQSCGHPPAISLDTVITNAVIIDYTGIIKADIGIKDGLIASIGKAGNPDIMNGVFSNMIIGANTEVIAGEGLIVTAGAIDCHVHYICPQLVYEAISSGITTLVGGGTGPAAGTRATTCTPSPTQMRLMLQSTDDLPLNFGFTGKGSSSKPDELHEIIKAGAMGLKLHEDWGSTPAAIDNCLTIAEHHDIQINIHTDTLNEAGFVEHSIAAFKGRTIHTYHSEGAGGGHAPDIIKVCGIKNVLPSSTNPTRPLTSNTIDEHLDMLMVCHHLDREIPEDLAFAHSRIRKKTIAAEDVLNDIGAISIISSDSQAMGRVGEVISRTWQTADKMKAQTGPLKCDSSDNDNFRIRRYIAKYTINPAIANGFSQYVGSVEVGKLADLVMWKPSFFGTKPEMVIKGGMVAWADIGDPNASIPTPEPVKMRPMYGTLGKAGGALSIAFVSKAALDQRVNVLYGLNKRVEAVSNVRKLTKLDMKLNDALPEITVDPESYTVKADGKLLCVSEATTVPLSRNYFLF
# protocol: biochemical
# Assay type: biochemical
# condition_description: urease inhibition at 15 µg/mL, pH 6.8
# Experimental: Urease is an enzyme which converts urea to ammonium carbonate and is used as a diagnostic tool to establish the presence of different pathogens in the urinary and gastrointestinal tract. The percentage activity values of urease enzyme of compounds 4a–d were measured at 50 µg/mL and 250 µg/mL (Table 5), whereas, for compounds 4e–g, the percentage activity values of urease enzyme were measured at 15, 40 and 80 µg/mL, respectively (Table 6). […]

| compound | Percent urease inhibition, % |
| --- | --- |
| CC(=O)NS(=O)(=O)c1ccc(-c2ccc(Cl)cc2)s1 [Compound 4g] | 46.23 |
| NC(N)=S [Standard, Thiourea, reference compound] | 47.1 |
| CC(=O)NS(=O)(=O)c1ccc(-c2ccc(C)s2)s1 [Compound 4f] | 42.44 |
| CC(=O)NS(=O)(=O)c1ccc(-c2cc(C)cc(C)c2)s1 [Compound 4e] | 44.59 |

---

# Percent urease inhibition listing for each entry below
# experimental_target: Jack bean urease enzyme (Canavalia ensiformis, UniProt P07374)
# protocol: biochemical
# Format: biochemical
# condition_description: urease inhibition at 50 µg/mL, pH 6.8

| compound | unit_info | Percent urease inhibition |
| --- | --- | --- |
| CC(=O)NS(=O)(=O)c1ccc(-c2ccccc2)s1 [Compound 4a] | % | 67.56 |
| NC(N)=S [Standard, Thiourea, reference compound] | % | 60 |
| CC(=O)NS(=O)(=O)c1ccc(-c2ccc(Cl)c(Cl)c2)s1 [Compound 4c] | % | 54.4 |
| CC(=O)NS(=O)(=O)c1ccc(-c2ccc(C)cc2)s1 [Compound 4d] | % | 13.34 |
| CC(=O)NS(=O)(=O)c1ccc(-c2cc(C(F)(F)F)cc(C(F)(F)F)c2)s1 [Compound 4b] | % | 29.98 |
